ASSAY COMMENT: Acute toxicity, rats
ASSAY CONTEXT: rat, in vivo, iv, mortality within 7 days
EXPERIMENTAL READOUT: LD50 at 168 h (mg/kg)
Numbers only, in mg/kg.

The value of LD50 at 168 h measured for the molecule "CC1(C)CC(=O)N(CCN2CCN(c3ccccc3)CC2)C(=S)N1" turned out to be 66

###

System: serotonin spasm in the isolated uterus of rats
ASSAY COMMENT: Test b: serotonin antagonism in the isolated uterus of rats
Assay type: cell-based, rats (Sprague-Dawley)
ASSAY CONTEXT: isolated rat uterus; serotonin 10^-8 g/ml bath; 22° C.; read-out: ED50 (the source's name)
Counter-ions that a name gives are not always drawn.
Assign IC50 to each entry below.

Some compounds with known IC50 results, for comparison:
| COMPOUND | IC50 |
| --- | --- |
| CC1(C)CC(=O)N(CCN2CCN(c3ccccc3)CC2)C(=S)N1 | 0.1 to 1 ng/mL |
| CC1(C)CC(=O)N(CCCN2CCN(c3ccccc3)CC2)C(=O)N1 | 1 to 10 ng/mL |

For each entry beneath this line, provide reported IC50.
1. CN1CCC(=C2c3ccccc3CCc3sccc32)CC1 [Pizotyline-HCl, reference compound]
2. CC1(C)CC(=O)N(CCCN2CCN(c3ccccc3)CC2)C(=S)N1
3. CC1NC(=O)N(CCCN2CCN(c3ccccc3)CC2)C(=O)C1C (centres unmarked)

output:
["1 to 10 ng/mL", "1 to 10 ng/mL", "1 to 10 ng/mL"]

###

Test system: thrombocyte aggregation
ASSAY COMMENT: Thrombocyte aggregation inhibiting activity (ADP-induced, platelet-rich plasma)
Assay type: cell-based, beagle dogs
ASSAY CONTEXT: final concentration 10^-4 g/ml
Assign angle α between the tangent at the starting point of the curve and the horizontal axis to each entry below.
Numbers only.

For each entry beneath this line, provide reported angle α between the tangent at the starting point of the curve and the horizontal axis.
1. CN(C)CCCOC1(Cc2ccccc2)CCCCCC1 [Fludilate, reference compound]
2. CC1NC(=O)N(CCCN2CCN(c3ccccc3)CC2)C(=O)C1C (centres unmarked) [compound 17]

output:
[85.2, 85.9]

For each entry beneath this line, provide reported angle α between the tangent at the starting point of the curve and the horizontal axis.
1. CC1(C)CC(=O)N(CCCN2CCN(c3ccccc3)CC2)C(=S)N1 [compound 16]
2. CC1(C)CC(=O)N(CCN2CCN(c3ccccc3)CC2)C(=S)N1 [compound 18]
3. CC1(C)CC(=O)N(CCCN2CCN(c3ccccc3)CC2)C(=O)N1 [compound 9]

output:
86.3
85.8
87.0

###

ASSAY COMMENT: Acute toxicity, mice
ASSAY CONTEXT: mouse, in vivo, iv, mortality within 7 days
EXPERIMENTAL READOUT: LD50 at 168 h (mg/kg)
Give bare numbers, in mg/kg.

| COMPOUND | UNIT INFO | LD50 at 168 h |
| --- | --- | --- |
| CC1NC(=O)N(CCCN2CCN(c3ccccc3)CC2)C(=O)C1C (stereo not shown) | mg/kg | 54 |

Here's the next entry for you.
The value of LD50 at 168 h measured for the compound "CC1(C)CC(=O)N(CCCN2CCN(c3ccccc3)CC2)C(=O)N1" turned out to be 83

###

Tested on: serotonin spasm (bronchospasm)
ASSAY COMMENT: Test a: inhibition of serotonin-induced bronchospasm (Konzett and Rossler)
Format: in vivo
ASSAY CONTEXT: Cavia porcellus, iv, 2 min; i.v.; guinea pigs; 2 minutes after injection
Where a name gives a salt, the structure may show the parent alone.
EXPERIMENTAL READOUT: ED50

Some molecules with known ED50 results, for comparison:
| MOLECULE | ED50 |
| --- | --- |
| CC1(C)CC(=O)N(CCN2CCN(c3ccccc3)CC2)C(=S)N1 [compound 18] | 0.001 to 0.003 mg/kg |
| CC1(C)CC(=O)N(CCCN2CCN(c3ccc(F)cc3)CC2)C(=O)N1 [compound 11] | 0.01 to 0.03 mg/kg |
| CC1(C)CC(=O)N(CCCN2CCN(c3ccccc3)CC2)C(=S)N1 [compound 16] | 0.01 to 0.03 mg/kg |
| CC1NC(=O)N(CCCN2CCN(c3ccccc3)CC2)C(=O)C1C (stereo not drawn) [compound 17] | 0.001 to 0.003 mg/kg |
| CC1(C)CC(=O)N(CCCN2CCN(c3ccccc3)CC2)C(=O)N1 [compound 9] | 0.003 to 0.01 mg/kg |

The value of ED50 measured for the molecule CN1CCC(=C2c3ccccc3CCc3sccc32)CC1 [Pizotyline-HCl, reference compound] turned out to be 0.01 to 0.05 mg/kg

###

Test system: 5-Hydroxy-L-tryptophan
ASSAY COMMENT: Test c: 5-Hydroxy-L-tryptophan antagonism in mice (defecation)
Assay type: in vivo
ASSAY CONTEXT: 20 mg/kg p.o., 5-hydroxy-L-tryptophan 40 mg/kg i.p.
Structures can show the parent of a compound that is named as a salt.
EXPERIMENTAL READOUT: Strength of activity (reduction in quantity of faeces)

| COMPOUND | ASSAY VALUE |
| --- | --- |
| CN1CCC(=C2c3ccccc3CCc3sccc32)CC1 [Pizotyline-HCl, reference compound] | + (from 25 to 50%) |
| CC1NC(=O)N(CCCN2CCN(c3ccccc3)CC2)C(=O)C1C (stereo not shown) [compound 17] | ++ (from 50 to 75%) |
| CC1(C)CC(=O)N(CCCN2CCN(c3ccccc3)CC2)C(=S)N1 [compound 16] | + (from 25 to 50%) |
| CC1(C)CC(=O)N(CCN2CCN(c3ccccc3)CC2)C(=S)N1 [compound 18] | ++ (from 50 to 75%) |

###

ASSAY COMMENT: Acute toxicity, mice
ASSAY CONTEXT: mouse, in vivo, ip, for the base, mortality within 7 days
EXPERIMENTAL READOUT: LD50 at 168 h

The value of LD50 at 168 h measured for the molecule "CC1(C)CC(=O)N(CCCN2CCN(c3ccccc3)CC2)C(=O)N1" turned out to be 100 to 300 mg/kg
